# Tested on: Escherichia coli TOP10;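 further: peptides expressed intracellularly from a pBAD plasmid library in pooled LB shake-flask culture, induced with 0.3% L-arabinose, DNA abundance read by NGS, three biological replicates, DESeq2 with apeglm shrinkage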
# assay-remarks: shrunken log2 fold change of peptide-encoding DNA abundance (4.5 h post-induction vs induction); higher = less antimicrobial activity (less host growth inhibition)
# condition-parameters: time post-induction: 4.5 h; library: site-saturation at positions 5, 18, 19, 20
shrunken log2 fold change vs 0.4: at or above is Condition met, below is Condition not met.

Sample answers from the record:
- sequence-text: "RRIRVRPPRLPRPRPRPQPHPRP"
  target-of-assay: "Escherichia coli TOP10"
  answer-label: "Condition not met"
- sequence-text: "RRIRGRPPRLPRPRPRPEWGPRP"
  target-of-assay: "Escherichia coli TOP10"
  answer-label: "Condition met"
- sequence-text: "RRIRVRPPRLPRPRPRPKWNPRP"
  target-of-assay: "Escherichia coli TOP10"
  answer-label: "Condition not met"
- sequence-text: "RRIRKRPPRLPRPRPRPRCKPRP"
  target-of-assay: "Escherichia coli TOP10"
  answer-label: "Condition not met"
- sequence-text: "RRIRPRPPRLPRPRPRPCRMPRP"
  target-of-assay: "Escherichia coli TOP10"
  answer-label: "Condition not met"
- sequence-text: "RRIRYRPPRLPRPRPRPPKAPRP"
  target-of-assay: "Escherichia coli TOP10"
  answer-label: "Condition not met"
- sequence-text: "RRIRKRPPRLPRPRPRPMVTPRP"
  target-of-assay: "Escherichia coli TOP10"
  answer-label: "Condition not met"
- sequence-text: "RRIRNRPPRLPRPRPRPCMVPRP"
  target-of-assay: "Escherichia coli TOP10"
  answer-label: "Condition not met"

Tell me whether shrunken log2 fold change is at least 0.4 here: "RRIRARPPRLPRPRPRPYIAPRP"
Condition not met

Tell me whether shrunken log2 fold change is at least 0.4 here: "RRIRKRPPRLPRPRPRPTWRPRP"
Condition met
